# Test system: DMS 273 small cell lung
# measurement.protocol: NCI tumour cell line growth inhibition, 48 h
Kindly state TGI for each of the entries shown.

COc1cc(OC(=O)c2ccccc2)cc2c1C(=O)C=CC2=O ... 40.5 µM

Batch lookup, TGI per entry.
1. COC(=O)/C(C)=C(/CCC1(C)OCCO1)O[Si](C)(C)C
2. O=C(CSc1nnc(-c2ccc(N=Cc3ccc(Cl)cc3)cc2)o1)Nc1ccccc1[N+](=O)[O-]
3. COC1CC(OS(=O)(=O)c2ccc([N+](=O)[O-])cc2)C(OC(=O)c2ccccc2)C(C)O1 (stereo not given)
4. C[C@]12C=CC(=O)C=C1CC[C@@H]1[C@@H]2CC[C@]2(C)OC(=O)CC[C@@H]12

["> 100 µM", "> 100 µM", "> 100 µM", "> 500 µM"]

---

So I've got a bunch of molecules here, and I need their TGI values.
# Tested on: NCI-H460 lung
# measurement.protocol: NCI tumour cell line growth inhibition, 48 h

O=C1c2ccccc2C(O)(O)C1(O)C1(O)C(=O)c2ccccc2C1(O)O (stereo unspecified) ... 37.3 µM
Fc1ccc2c(c1)C1=NN(c3ccccc3)C(F)C1CO2 (stereo unspecified) ... > 50 µM
C/C(CC(=O)Nc1ccc([N+](=O)[O-])cc1)=N\NC(N)=O ... > 100 µM
CCOC(=O)c1cnc2oc3ccc(O)cc3c2c1C ... > 100 µM

Please give TGI, item by item, for the list that follows.
1. O=c1oc2ccc3ccccc3c2cc1-c1cn2ccccc2n1
2. C=C1c2ccccc2C(=O)c2c1c1c(C(=O)OC)c(O)ccc1n2Cc1ccccc1
3. CC(C)Cn1cnc2c(NCC(C)O)nc3ccccc3c21 (stereo unspecified)
4. COc1cc([C@@H]2OC[C@@H]3C(c4cc(OC)c5c(c4)OCO5)OC[C@@H]32)cc(OC)c1OC (stereo partly specified)
5. COc1ccc2c3c1O[C@]1(C)C34CCN(C)C(C2)C42C=C[C@@]1(OC)c1c(O)ccc(O)c12
6. O=C([CH-]C(=O)c1ccccc1)c1ccccc1.O=C([CH-]C(=O)c1ccccc1)c1ccccc1.[La+3].[OH-].[OH3+]
7. COc1cc2c(c(O)c1OC)-c1c(cc(OC)c(OC)c1OC)CC(C)C(C)C2 (stereo unspecified)
8. COC1CC(OS(=O)(=O)c2ccc([N+](=O)[O-])cc2)C(OC(=O)c2ccccc2)C(C)O1 (stereo unspecified)

> 100 µM
2.34 µM
> 100 µM
> 100 µM
> 100 µM
> 100 µM
> 100 µM
> 100 µM

Each molecule below has a recorded value; state its TGI.
1. OC(c1ccccc1)(c1ccccc1)c1ccncc1
2. O=C(Nc1ccc(Cl)cc1)c1cc2cc(N=Nc3ccccc3Cl)ccc2oc1=O
3. Cc1ccc(Nc2n[nH]c(=S)s2)cc1C
4. COC(=O)c1ccc(C)cc1CC1Cc2cc(C)ccc2C1=O (stereo unspecified)
5. CN[C@@H](C)C(=O)N[C@H](C(=O)N1CCC[C@H]1C(=O)Nc1snnc1-c1ccccc1)C1CCCCC1
6. Oc1c(C(Nc2cccc3cccnc23)c2ccccc2)ccc2cccnc12 (stereo unspecified)
7. Cc1cc2c(cc1C)N(C(=O)CCl)CC(=O)N2
8. CC(C)(C)n1cc(-c2ccnc(NCCCNS(=O)(=O)c3ccc(C(F)(F)F)cc3)c2)c(-c2cccc(O)c2)n1

> 100 µM
> 100 µM
> 100 µM
> 100 µM
> 100 µM
> 100 µM
14.4 µM
3.57 µM

Entry Cc1csc2[n+]1C(=O)/C(=C\c1ccc([N+](=O)[O-])cc1)S2 : reported TGI = ?
41.9 µM

---

# Tested on: SF-268 CNS
# measurement.protocol: NCI tumour cell line growth inhibition, 48 h
observation.type: TGI

Fill in TGI for each of the 6 molecules listed.
1. O=C(ON=C1c2ccccc2C(Br)C(Br)c2ccccc21)c1cc([N+](=O)[O-])cc([N+](=O)[O-])c1 (stereo not given)
2. CS(=O)(=O)c1nc(-c2cc3c(c(S(C)(=O)=O)n2)CCC3)cc2c1CCCCC2
3. Cc1cc(=O)[nH]c(-n2[nH]c(C)c(CCO)c2=O)n1
4. CSc1nc(C#N)c(/N=C\N(C)C)n1C
5. COC(=O)c1nc(-c2ccccc2)oc1S(=O)(=O)Cc1ccccc1
6. Oc1ccccc1/C=C/c1csnn1

1: 35.7 µM; 2: 92.2 µM; 3: > 100 µM; 4: > 100 µM; 5: 32.8 µM; 6: > 100 µM

Hi! Can you tell me TGI for each of these molecules?
1. COc1cc(/C=C2/C(=O)N(C(=O)OCC(C)C)C(Cc3cc(OC)c(OC)c(C)c3OC)C(=O)N2Cc2ccccc2)c(OC)c(C)c1OC (stereo not given)
2. COC1(OC)c2no[n+]([O-])c2CCC1O (stereo not given)
3. CNC1=C(C)C(=O)C(=O)C([C@H](C)CCC=C(C)C)=C1O
4. C=C(C)C1=CCC[C@]2(C1)N=C(OC)[C@@H](C(C)C)N=C2OC
5. O=C1Nc2ccccc2/C1=C/C(=O)c1coc2c1C(=O)c1ccccc1C2=O
6. COC(=O)/C=C(/C)n1nc2ccccc2n1
7. COc1cc2c(cc1C)NC(=O)/C2=C/c1ccccn1

> 100 µM
> 100 µM
> 100 µM
> 100 µM
> 100 µM
> 100 µM
24.6 µM

---

# Tested on: HT29 colon
# measurement.protocol: NCI tumour cell line growth inhibition, 48 h; in the data active means GI50 below about 0.43 µM; inactive means the rest
Outcome (select one): 1 = active, -1 = inactive

// known answers, use as guide
COc1cc(C[C@H]2c3cc(OC)c(OC)cc3CCN2C)c(Oc2cc3c(cc2OC)-c2c(OC)c(OC)cc4c2[C@H](C3)N(C)CC4)cc1OC ... -1
COc1ccc(-c2cn(-c3cc(OC)c(OC)c(OC)c3)c(SCc3ccccc3)n2)cc1OC ... -1
CN(O)c1nc(N(C)O)nc(N2CCOCC2)n1 ... -1
C=C(C)C(=O)O[C@H]1CC(=C)[C@@H]2C[C@H](O)[C@](O)(CCl)[C@@H]2[C@H]2OC(=O)C(=C)[C@@H]21 ... -1
C(#Cc1ccccc1C#Cc1cccs1)c1cccs1 ... -1

Can you look up the reported call for C=C(C)C(=O)Nc1ccc(NC(C)C)cc1 for me?
-1

Just curious, what result did Cc1cc(O)c(C(C)C)cc1S(=O)(=O)O (tested in a mixture with another compound) get here?
1

Fill in: this test's call for O=C(CCCCCCCCC(=O)N/N=C\c1ccccc1O)N/N=C\c1ccccc1O is ___
-1

Hi team, can someone confirm the assay call for Nc1c(C(=O)c2cccc(-c3ccncc3)c2)cnn1-c1ccc(F)cc1F ?
-1

# fetch the recorded call for COc1cc(C(=O)O[C@H](C(=O)NCCCCCNC(=O)[C@@H](OC(=O)c2cc(OC)cc3c(C)cccc23)[C@]2(C)CO2)[C@]2(C)CO2)c2cccc(C)c2c1 here
1

Can you look up the reported call for COc1c(C)c2c(c(O)c1C/C=C(\C)CCC(=O)O)C(=O)OC2 for me?
1

What did this assay record as the result for O=C([CH-]C(=O)c1ccccc1)c1ccccc1.O=C([CH-]C(=O)c1ccccc1)c1ccccc1.[La+3].[OH-].[OH3+] ?
-1

---

# Tested on: HOP-62 NSCLC
# measurement.protocol: NCI tumour cell line growth inhibition, 48 h
Exercise: for every item that follows, state its recorded TGI.

// solved cases for TGI follow
O=C(Nc1ccc(Cl)cc1)c1cc2cc(N=Nc3ccccc3Cl)ccc2oc1=O ... 61.9 µM
CCC1C2Cc3ccc(O)cc3C1(CC)CCN2C (configuration not stated) ... > 100 µM
Nc1ncnc2nc[nH]c12 ... > 250 µM
Cn1c2ccccc2n2c(N=O)c(-c3ccccc3)nc12 ... 27.6 µM
COc1ccc(C2=CC(c3ccc4c(c3)OCO4)c3c(c4ccccc4oc3=O)O2)cc1OC (configuration not stated) ... > 100 µM
O=C1/C(=C/c2ccccc2O)N=C(c2ccccc2)N1C1Nc2cc3c(cc2S1)NC(N1C(=O)/C(=C/c2ccccc2O)N=C1c1ccccc1)S3 (configuration not stated) ... > 100 µM
O=C(NC1=NCC(CN2CCN(c3ccccc3)CC2)O1)Nc1ccccc1 (configuration not stated) ... > 100 µM
O=C(O)CNC(=O)c1ccc(-c2ccccc2)cc1 ... > 100 µM

For each of the items listed, what is its TGI?
1. O=c1oc2ccc3ccccc3c2cc1-c1cn2ccccc2n1
2. O=C(O)c1cc([N+](=O)[O-])cc2c(=O)c3cnccc3[nH]c12
3. O=C1/C(=C/c2cccc(Br)c2)CCc2ccccc21
4. CN1C(=Nc2ccccc2)SC1=Nc1ccccc1
5. O=c1c2c(oc3ccccc13)-c1ccccc1OC2
6. O=C(ON=C1c2ccccc2C(Br)C(Br)c2ccccc21)c1cc([N+](=O)[O-])cc([N+](=O)[O-])c1 (configuration not stated)

1. > 100 µM
2. > 100 µM
3. 30.1 µM
4. > 100 µM
5. > 100 µM
6. 34.3 µM

Okay, here is my list. What is TGI for each of these?
1. COc1ccc2cc(C(=O)/C=C/c3ccc(Cl)cc3Cl)ccc2c1
2. Cc1ccc(Nc2n[nH]c(=S)s2)cc1C
3. COC1CC(OS(=O)(=O)c2ccc([N+](=O)[O-])cc2)C(OC(=O)c2ccccc2)C(C)O1 (configuration not stated)
4. COc1cc(NC(C)CCCNC2CN3CCC2CC3)c2ncccc2c1 (configuration not stated)

["50.8 µM", "> 100 µM", "> 100 µM", "24.8 µM"]

Can you give me TGI for all of these, one by one?
1. CCC[CH2][Sn]1([CH2]CCC)[O]C(=O)c2cccnc2[O]1
2. COc1cc2c(c(O)c1OC)-c1c(cc(OC)c(OC)c1OC)CC(C)C(C)C2 (configuration not stated)
3. COc1cc2ccc(/C=C\[N+](=O)[O-])cc2cc1OC
4. Clc1ccc(NCc2nnc(CCCCCCCCc3nnc(CNc4ccc(Cl)cc4)o3)o2)cc1

1: 20.9 µM; 2: > 100 µM; 3: 16.1 µM; 4: > 100 µM
